Tested on: SW-620
Assay: Growth inhibition of human SW620 cells after 72 hrs by MTT method
Type: functional, cell-based
Details: SW-620, 72 h
measured-parameter: pIC50
// returns pIC50 (minus log10 of molar concentration), number only

[[record]]
smiles_string = "Cl.O=C(Nc1ccc(C2=NCCN2)nc1)c1sc2ccccc2c1Cl"
reported_value = 5.89

[[record]]
smiles_string = "Cl.O=C(Nc1ccc(C2=NCCN2)cn1)c1sc2ccccc2c1Cl"
reported_value = 6.00

[[record]]
smiles_string = "O=c1[nH]c2ccncc2c2c1sc1ccccc12"
reported_value = 5.22

[[record]]
smiles_string = "Cl.O=c1[nH]c2ncc(C3=NCCN3)cc2c2c1sc1ccccc12"
reported_value = 6.22

[[record]]
smiles_string = "O=C(Nc1ccncc1)c1sc2ccccc2c1Cl"
reported_value = 4.42

[[record]]
smiles_string = "N#Cc1cnc2[nH]c(=O)c3sc4ccccc4c3c2c1"
reported_value = 4.66


We now examine a further compound.
Task: Supply reported pIC50 belonging to this compound: N#Cc1ccc(NC(=O)c2sc3ccccc3c2Cl)nc1
Output: 4.70
